# Test system: E18 rat cortical neuron-glia co-culture
# TEST_NAME: myelination (MBP fiber length per Olig2+ nucleus), % of 1 µM DAPT response (DMSO = 0) (% of DAPT); higher = more myelination, active = 50 or more
# CONDITIONS: 5 µM; treatment time: 8 days (DIV5-DIV13)
Recorded myelination by entry
Just the number.

Please review the following examples before continuing.
# get_value(readout= myelination, system= E18 rat cortical neuron-glia co-culture) for CCOC(=O)O[C@]1(C(=O)OCCl)CC[C@H]2[C@@H]3CCC4=CC(=O)C=C[C@]4(C)[C@H]3[C@@H](O)C[C@@]21C [Loteprednol etabonate]
-1.58

# get_value(readout= myelination, system= E18 rat cortical neuron-glia co-culture) for CC(=O)/N=c1/sc(S(N)(=O)=O)nn1C [Methazolamide]
-24.1

# get_value(readout= myelination, system= E18 rat cortical neuron-glia co-culture) for COCCCC/C(=N\OCCN)c1ccc(C(F)(F)F)cc1 [Fluvoxamine]
-9.1

# get_value(readout= myelination, system= E18 rat cortical neuron-glia co-culture) for C[C@]12C=CC(=O)C=C1CC[C@@H]1[C@@H]2[C@@H](O)C[C@@]2(C)[C@H]1CC[C@]2(O)C(=O)COC(=O)CCC(=O)O [Prednisolone hemisuccinate]
-1.16

# get_value(readout= myelination, system= E18 rat cortical neuron-glia co-culture) for Cc1ccc(Cl)c(Nc2ccccc2C(=O)O)c1Cl [Meclofenamic acid]
-2.96

# get_value(readout= myelination, system= E18 rat cortical neuron-glia co-culture) for COC(=O)Nc1nc2cc(C(=O)c3ccccc3)ccc2[nH]1 [Mebendazole]
-22.3

# get_value(readout= myelination, system= E18 rat cortical neuron-glia co-culture) for CN(CCOc1ccc(NS(C)(=O)=O)cc1)CCc1ccc(NS(C)(=O)=O)cc1 [Dofetilide]
-13.2

Please turn your attention to the following entry.
# get_value(readout= myelination, system= E18 rat cortical neuron-glia co-culture) for COc1ccnc(C[S+]([O-])c2nc3cc(OC(F)F)ccc3[nH]2)c1OC (stereo not drawn) [Pantoprazole]
1.97

====

# System: E18 rat cortical neuron-glia co-culture
# TEST_NAME: fiber score / MBP score (myelination specific beyond OL differentiation) (ratio); higher = more myelination-specific MBP alignment
# CONDITIONS: 5 µM; treatment time: 8 days (DIV5-DIV13)
Recorded fiber score / MBP score by entry
Just the number.

Please review the following examples before continuing.
For COC1=CC(=O)C[C@@H](C)[C@]12Oc1c(Cl)c(OC)cc(OC)c1C2=O , what is its reported fiber score / MBP score?
0.92

For CN(C)c1nc(N(C)C)nc(N(C)C)n1 , what is its reported fiber score / MBP score?
0.901

For CCOC(=O)[C@H](CCc1ccccc1)N[C@H]1CCc2ccccc2N(CC(=O)O)C1=O , what is its reported fiber score / MBP score?
0.971

For CC(=O)SCC(Cc1ccccc1)C(=O)NCC(=O)OCc1ccccc1 (stereo unspecified) , what is its reported fiber score / MBP score?
0.943

For CCN1CCN(C(=O)N[C@@H](C(=O)N[C@@H]2C(=O)N3[C@@H]2SC(C)(C)[C@@H]3C(=O)O)c2ccccc2)C(=O)C1=O , what is its reported fiber score / MBP score?
0.948

For COc1ccc(C2CNC(=O)C2)cc1OC1CCCC1 (stereo unspecified) , what is its reported fiber score / MBP score?
0.618

For Nc1nc(Cl)nc2c1ncn2[C@@H]1O[C@H](CO)[C@@H](O)[C@H]1O , what is its reported fiber score / MBP score?
0.764

For CNCC[C@@H](Oc1ccccc1C)c1ccccc1 , what is its reported fiber score / MBP score?
0.721

***
For CCn1cc(C(=O)O)c(=O)c2cc(F)c(N3CCNCC3)cc21 , what is its reported fiber score / MBP score?
0.729

For O=C1CC2(CCCC2)CC(=O)N1CCNCC1COc2ccccc2O1 (stereo unspecified) , what is its reported fiber score / MBP score?
0.49

For Nc1nc2c(ncn2COC(CO)CO)c(=O)[nH]1 , what is its reported fiber score / MBP score?
1

====

# Test system: E18 rat cortical neuron-glia co-culture
# TEST_NAME: fiber score / MBP score (myelination specific beyond OL differentiation) (ratio); higher = more myelination-specific MBP alignment
# CONDITIONS: 5 µM; treatment time: 8 days (DIV5-DIV13)
Recorded fiber score / MBP score by entry

Please review the following examples before continuing.
For C[C@](N)(Cc1ccc(O)c(O)c1)C(=O)O , what is its reported fiber score / MBP score?
0.884

For N[C@@H](C(=O)N[C@@H]1C(=O)N2C(C(=O)O)=C(Cl)CS[C@H]12)c1ccccc1 , what is its reported fiber score / MBP score?
0.875

Please turn your attention to the following entry.
For Fc1cncnc1 , what is its reported fiber score / MBP score?
0.899

====

# System: E18 rat cortical neuron-glia co-culture
# TEST_NAME: myelination (MBP fiber length per Olig2+ nucleus), % of 1 µM DAPT response (DMSO = 0) (% of DAPT); higher = more myelination, active = 50 or more
# CONDITIONS: 1 µM; treatment time: 8 days (DIV5-DIV13)
The reply should name one outcome from 1.0 = active, 0.0 = inactive

Use these answered entries as a reference point.
Could you please tell me the result logged for O=C1CC2(CCCC2)CC(=O)N1CCCCN1CCN(c2ncccn2)CC1 in this assay?
0.0

Could you please tell me the result logged for CCc1nc(N)nc(N)c1-c1ccc(Cl)cc1 in this assay?
1.0

Could you please tell me the result logged for COc1cc2nc(N3CCN(C(=O)C4COc5ccccc5O4)CC3)nc(N)c2cc1OC (configuration not stated) in this assay?
0.0

Could you please tell me the result logged for CN1CCN2c3ncccc3Cc3ccccc3C2C1 (configuration not stated) in this assay?
0.0

Could you please tell me the result logged for NCCc1ccc(O)c(O)c1 in this assay?
0.0

Could you please tell me the result logged for OCc1cc(C(O)CNCCCCCCOCCCCc2ccccc2)ccc1O (configuration not stated) in this assay?
0.0

Could you please tell me the result logged for CO/N=C(\C(=O)N[C@@H]1C(=O)N2C(C(=O)O)=C(COC(C)=O)CS[C@H]12)c1csc(N)n1 in this assay?
0.0

Could you please tell me the result logged for O=C(O)COCCN1CCN(C(c2ccccc2)c2ccc(Cl)cc2)CC1 (configuration not stated) [Cetirizine] in this assay?
0.0

***
Could you please tell me the result logged for OCc1cccnc1 in this assay?
0.0

Could you please tell me the result logged for CC1=C(/C=C/C(C)=C/C=C/C(C)=C/C(=O)O)C(C)(C)CCC1 in this assay?
0.0

Could you please tell me the result logged for CCCN(CCC)S(=O)(=O)c1ccc(C(=O)O)cc1 in this assay?
0.0

Could you please tell me the result logged for COc1cc(C)c(/C=C/C(C)=C/C=C/C(C)=C/C(=O)O)c(C)c1C in this assay?
0.0

====

Recorded myelination by entry
# Test system: E18 rat cortical neuron-glia co-culture
# TEST_NAME: myelination (MBP fiber length per Olig2+ nucleus), % of 1 µM DAPT response (DMSO = 0) (% of DAPT); higher = more myelination, active = 50 or more
# CONDITIONS: 1 µM; treatment time: 8 days (DIV5-DIV13)
Just the number.

Please review the following examples before continuing.
For CC(C)(C)NC[C@H](O)COc1nsnc1N1CCOCC1 , what is its reported myelination?
-4.47

For COc1cc2nc(N3CCN(C(=O)C4CCCO4)CC3)nc(N)c2cc1OC (centres undefined) , what is its reported myelination?
11.7

For CN1C(=O)CC[C@H]1c1cccnc1 , what is its reported myelination?
-30.3

For Cc1[nH]cnc1CN1CCc2c(c3ccccc3n2C)C1=O , what is its reported myelination?
-18.2

For CN1CCCC(n2nc(Cc3ccc(Cl)cc3)c3ccccc3c2=O)CC1 (centres undefined) , what is its reported myelination?
-2.34

For CCOC(=O)[C@H](CCc1ccccc1)N[C@@H](C)C(=O)N1Cc2ccccc2C[C@H]1C(=O)O , what is its reported myelination?
-0.422

For COc1ccc(C(=O)NCc2ccc(OCCN(C)C)cc2)cc1OC [Itopride] , what is its reported myelination?
-10.9

For Nc1nc(N)c2nc(-c3ccccc3)c(N)nc2n1 , what is its reported myelination?
68.5

***
For CC(C)[C@H](N)C(=O)OCCOCn1cnc2c(=O)nc(N)[nH]c21 , what is its reported myelination?
-21.7

====

Recorded fiber score / MBP score by entry
# System: E18 rat cortical neuron-glia co-culture
# TEST_NAME: fiber score / MBP score (myelination specific beyond OL differentiation) (ratio); higher = more myelination-specific MBP alignment
# CONDITIONS: 5 µM; treatment time: 8 days (DIV5-DIV13)
Just the number.

Please review the following examples before continuing.
For COc1ccccc1OCCNCC(O)COc1cccc2[nH]c3ccccc3c12 (stereo not drawn) , what is its reported fiber score / MBP score?
0.794

For CCOC(=O)c1ccc(OC(=O)CCCCCNC(=N)N)cc1 [Gabexate] , what is its reported fiber score / MBP score?
0.799

Please turn your attention to the following entry.
For CC[C@H](C)C(=O)O[C@H]1C[C@H](O)C=C2C=C[C@H](C)[C@H](CC[C@@H](O)C[C@@H](O)CC(=O)O)[C@H]21 , what is its reported fiber score / MBP score?
0.809
